The entries below are paired with their reported inhibition.
System: glucose-6-phosphate dehydrogenase-6-phosphogluconolactonase (Plasmodium falciparum 3D7)
procedure_text: inhibition of malaria parasite G6PD (PfGluPho) – biochemical, fluorescence intensity, uHTS, primary screen (AID 504690);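 note: 0% = DMSO wells with substrate and 100% = DMSO wells lacking glucose-6-phosphate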
condition_summary: PfGluPho enzyme, NADPH resazurin-diaphorase fluorescence; at 20 µM; stronger effect = higher value
Hit rate of the full screen: of about 350,000 compounds, about 2,700 (0.77%) were called active. Many of the other results were omitted from the sample, so actives are more common in it than they were.
readout: inhibition (%)

[[record]]
molecule = "C=CC(=O)Nc1ccc(Nc2ccnc(Nc3ccc(N4CCN(C)CC4)cc3)n2)cc1"
assayed_target = "glucose-6-phosphate dehydrogenase-6-phosphogluconolactonase (Plasmodium falciparum 3D7)"
value = 77.4

[[record]]
molecule = "COc1ccc(COC(=O)c2ccc(Cl)c(S(=O)(=O)N3CCOCC3)c2)cc1F"
assayed_target = "glucose-6-phosphate dehydrogenase-6-phosphogluconolactonase (Plasmodium falciparum 3D7)"
value = 20.9

[[record]]
molecule = "CC(=O)N1CC[n+]2c(-c3ccc([N+](=O)[O-])cc3)csc21"
assayed_target = "glucose-6-phosphate dehydrogenase-6-phosphogluconolactonase (Plasmodium falciparum 3D7)"
value = 60.6

[[record]]
molecule = "CN1CCN(c2nc(Nc3ccc(O)cc3)nc3ccccc23)CC1"
assayed_target = "glucose-6-phosphate dehydrogenase-6-phosphogluconolactonase (Plasmodium falciparum 3D7)"
value = 3.52

[[record]]
molecule = "COC(=O)CSc1nc2c(c(C3CC=CCC3)c1C#N)CCC2 (stereo unspecified)"
assayed_target = "glucose-6-phosphate dehydrogenase-6-phosphogluconolactonase (Plasmodium falciparum 3D7)"
value = -38.4

[[record]]
molecule = "Cn1cnnc1SCC(=O)Nc1ccc(N2CCOCC2)cc1"
assayed_target = "glucose-6-phosphate dehydrogenase-6-phosphogluconolactonase (Plasmodium falciparum 3D7)"
value = 7.84

[[record]]
molecule = "CC1CCC2(CC1)NC(=O)N(CC(=O)c1ccc3c(c1)OCO3)C2=O (stereo unspecified)"
assayed_target = "glucose-6-phosphate dehydrogenase-6-phosphogluconolactonase (Plasmodium falciparum 3D7)"
value = 6.6

[[record]]
molecule = "O=c1c2c(nc3nc[nH]n13)CCC2"
assayed_target = "glucose-6-phosphate dehydrogenase-6-phosphogluconolactonase (Plasmodium falciparum 3D7)"
value = 16.4

[[record]]
molecule = "O=C1/C(=C\\Nc2ccccc2)CCN1c1ncccn1"
assayed_target = "glucose-6-phosphate dehydrogenase-6-phosphogluconolactonase (Plasmodium falciparum 3D7)"
value = 10.9

[[record]]
molecule = "CCCCN1Cc2c(nc3cc(-c4ccccc4)[nH]n3c2=O)C1=O"
assayed_target = "glucose-6-phosphate dehydrogenase-6-phosphogluconolactonase (Plasmodium falciparum 3D7)"
value = -27.7

[[record]]
molecule = "O=C(NCc1ccccc1)C1CCCN(S(=O)(=O)c2cccs2)C1 (stereo unspecified)"
assayed_target = "glucose-6-phosphate dehydrogenase-6-phosphogluconolactonase (Plasmodium falciparum 3D7)"
value = 3.61


* * *

Tested on: glucose-6-phosphate dehydrogenase-6-phosphogluconolactonase (Plasmodium falciparum 3D7)
procedure_text: inhibition of malaria parasite G6PD (PfGluPho) – biochemical, fluorescence intensity, uHTS, primary screen (AID 504690);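 note: 0% = DMSO wells with substrate and 100% = DMSO wells lacking glucose-6-phosphate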
condition_summary: PfGluPho enzyme, NADPH resazurin-diaphorase fluorescence; at 20 µM; stronger effect = higher value
About 2,700 (0.77%) of roughly 350,000 compounds were called active. Only a selection was taken, and actives are over-represented in it overall.
readout: inhibition (%)

[[record]]
molecule = "COc1ccc(Cl)cc1NC(=O)CN(C)C(=O)c1cc2ccccc2cc1OC"
value = 11.4

[[record]]
molecule = "O=C(Nc1nncs1)c1cccc(S(=O)(=O)N2CCCCC2)c1"
value = -40.8

[[record]]
molecule = "Cc1cccn2c(CNCC(C)Oc3cccnc3)c(C(=O)N3CCOCC3)nc12 (stereo not drawn)"
value = 9.53

[[record]]
molecule = "COc1ccccc1N1CCN(c2nc(C)cc(=O)[nH]2)CC1"
value = 15.1

[[record]]
molecule = "CCN(C(=O)CSc1nnc(-c2ccncc2)o1)c1ccccc1"
value = -2.03

[[record]]
molecule = "CCOc1ccccc1/C=N/NC(=O)CNC(=O)COc1ccccc1"
value = 120

[[record]]
molecule = "COc1cc2c(C(=O)N(C)c3cc(Cl)ccc3OC)cn(C)c(=O)c2cc1OC"
value = -11.9

[[record]]
molecule = "Cc1cccc(-n2c(N)c(C(=O)N3CCN(C)CC3)sc2=S)c1"
value = 79.6

[[record]]
molecule = "O=C(Nc1ccc(N2CCOCC2)c(Cl)c1)c1ccc(S(=O)(=O)N2CCOCC2)cc1"
value = 0.32

[[record]]
molecule = "O=C(Nc1cccc(S(=O)(=O)N2CCCCC2)c1)c1cncc(Br)c1"
value = 9.89

[[record]]
molecule = "C=CCc1ccccc1OCC(=O)N/N=C/c1ccccc1OCC"
value = 105

[[record]]
molecule = "CCOc1ccc(S(=O)(=O)N2CCN(C(=S)NCC3CCCO3)CC2)cc1 (stereo not drawn)"
value = 8.65

[[record]]
molecule = "COc1ccccc1CNC(=O)COn1nnc2ccc(S(=O)(=O)N3CCOCC3)cc21"
value = -5.31

[[record]]
molecule = "Cc1cccc(C(=O)Nc2nnc(S(=O)(=O)N3CCCCCC3)s2)c1"
value = 95.7

[[record]]
molecule = "CC1(c2ccc3ccccc3c2)NC(=O)NC1=O (stereo not drawn)"
value = 18.9

[[record]]
molecule = "C=CCc1cccc(/C=N/NC(=O)COc2ccc(-n3cnnn3)cc2)c1O"
value = -10.4

[[record]]
molecule = "COc1cccc(N2CCN(c3ccc4nnc(CCC(=O)N5CCN(C)CC5)n4n3)CC2)c1"
value = 6.62

[[record]]
molecule = "COc1ccccc1-n1c(=S)[nH]c2c(sc(=S)n2-c2ccc(C)cc2C)c1=O"
value = 78.9

[[record]]
molecule = "COCCOC(=O)c1sc(=S)n(CCOC)c1N"
value = 25.1

[[record]]
molecule = "O=C(NC12CC3CC(CC(C3)C1)C2)N1CCCC(CO)C1 (stereo not drawn)"
value = -9.02

[[record]]
molecule = "CCOC(=O)C1CCN(Cc2c(C(=O)N3CCOCC3)nc3c(C)cccn23)CC1"
value = -12.6

[[record]]
molecule = "COc1ccc(OC)c(-n2cc3c(=O)n(C)c(=O)n(C)c3c2)c1"
value = 17.5

[[record]]
molecule = "O=C(Nc1nnc(-c2ccccc2)o1)c1cccc(S(=O)(=O)N2CCOCC2)c1"
value = 0.98

[[record]]
molecule = "CCOc1c2ccc(C(=O)NCc3ccc(OC(F)(F)F)cc3)cc2nn1C"
value = 1.65

[[record]]
molecule = "O=C(NC1CCc2ccccc21)C12CN(Cc3ccccc3)CC1C(c1cccc([N+](=O)[O-])c1)=NO2 (stereo not drawn)"
value = 3.16

[[record]]
molecule = "C=CCOc1ccccc1/C=N/NC(=O)Cc1ccccc1"
value = 4.68

[[record]]
molecule = "CCOc1ccc(-n2c(N)c(C(=O)NCC3CCCO3)sc2=S)cc1 (stereo not drawn)"
value = 67.6

[[record]]
molecule = "O=C(c1ccc(S(=O)(=O)N2CCCC2)cc1)N1CCN(c2ccccc2F)CC1"
value = 7.54

[[record]]
molecule = "CCOC(=O)Cc1ncccc1C(=O)Nc1ccc(OC(F)(F)F)cc1"
value = -20.5

[[record]]
molecule = "CCOc1ccc(NS(=O)(=O)c2ccc(C(=O)NCC3CCCO3)cc2)cc1 (stereo not drawn)"
value = 9.67

[[record]]
molecule = "C=C(C)CNC(=S)N/N=C/c1ccccc1OCC(=O)O"
value = 3.17

[[record]]
molecule = "CCc1ccc(-n2c(=S)sc3c(=O)n(-c4ccccc4OC)c(=S)[nH]c32)cc1"
value = 55.6

[[record]]
molecule = "Cc1nc2ccc(NC(=O)c3cccc(S(=O)(=O)N4CCOCC4)c3)cc2s1"
value = 19.6

[[record]]
molecule = "Cc1cccc(OCC(=O)NCC(=O)N/N=C/c2ccc(N(C)C)cc2)c1"
value = 17.1

[[record]]
molecule = "Cc1ccc(S(=O)(=O)c2cc3c(=O)n4cccc(C)c4nc3n(CCc3ccccc3)c2=N)cc1C"
value = -4.62

[[record]]
molecule = "Cc1ccc(-n2c(N)c(C(=O)N3CCOCC3)sc2=S)c(C)c1"
value = -1.21

[[record]]
molecule = "O=C(Oc1c(-c2ccco2)oc2ccccc2c1=O)c1cccnc1"
value = -16.3

[[record]]
molecule = "Cc1ccc(S(=O)(=O)N2CCCCC2)cc1NC(=O)[C@@H]1CCCN1C(=O)c1cccs1"
value = -10

[[record]]
molecule = "CC1(C)NC(=O)N(CC(=O)N2CCN(S(=O)(=O)c3ccccc3F)CC2)C1=O"
value = -13.8

[[record]]
molecule = "CN1CCN(CCCCOc2ccccc2-c2ccccc2)CC1"
value = 5.8

[[record]]
molecule = "O=C(Nc1nnc(S(=O)(=O)N2CCCCCC2)s1)c1cccc(Br)c1"
value = 88.1

[[record]]
molecule = "O=Cc1cn(-c2ccccc2)nc1-c1ccccn1"
value = -1.58

[[record]]
molecule = "NC(=O)C1=C[C@@H](c2ccc3c(c2)OCO3)C[C@@H](OCCCCO)O1"
value = 17.6

